# measured_target: Trib2-Luciferase (Luc-Trib2) fusion (Homo sapiens)
# protocol: cell-based
# experimental_conditions: HFF, read-out: Luciferase activity (%)
We begin with a simple list: items and their reported activity at 10 µM.
The figure you give is taken to be in %; do not add the unit.

Request: Report the value of activity at 10 µM obtained on Trib2-Luciferase (Luc-Trib2) fusion (Homo sapiens) for CN1CCN2c3ccccc3Cc3ccccc3C2C1 (stereo not drawn) .
Result: 55

----------
# measured_target: Trib2-Luciferase (Luc-Trib2) fusion (Homo sapiens)
# protocol: cell-based
# experimental_conditions: HFF, read-out: Luciferase activity (%)
measured_attribute: activity at 10 µM (%)
The figure you give is taken to be in %; do not add the unit.

>>> df
                                   molecule  value_units  observed_measurement
0  CC1CCc2c(N3CCC(O)CC3)c(F)cc3c(=O)c(C(=O)O)cn1c23 (stereo not drawn) [Nadifloxacin]            %                    96
1  C[C@H]1c2cccc(O)c2C(=O)C2=C(O)[C@]3(O)C(=O)C(C(N)=O)=C(O)[C@@H](N(C)C)[C@@H]3[C@@H](O)[C@@H]21 [Doxycycline]            %                    91
2  CCC(=O)NCC[C@@H]1CCc2ccc3c(c21)CCO3 [Ramelteon]            %                   100
3  C[C@@H]1CCO[C@H]2Cn3cc(C(=O)NCc4ccc(F)cc4F)c(=O)c(O)c3C(=O)N12 [Dolutegravir]            %                   100
4  C[C@@](Cc1ccc(O)c(O)c1)(NN)C(=O)O [Carbidopa]            %                    92
5  Nc1nc2c(ncn2CCC(CO)CO)c(=O)[nH]1 [Penciclovir]            %                    97

Request: // Input: CN(C)[C@@H](CCOc1cccc2ccccc12)c1ccccc1 [Dapoxetine] . Output its activity at 10 µM only.
Result: 88

Request: // Input: Cc1cnc(NC(=O)C2=C(O)c3ccccc3S(=O)(=O)N2C)s1 [Meloxicam] . Output its activity at 10 µM only.
Result: 100

Request: // Input: C[N+](C)(C)C[C@H](O)CC(=O)[O-] [Levocarnitine] . Output its activity at 10 µM only.
Result: 84

Request: // Input: [H]/N=C(/N)NS(=O)(=O)c1ccc(N)cc1 [Sulfaguanidine] . Output its activity at 10 µM only.
Result: 84

----------
# measured_target: Trib2-Luciferase (Luc-Trib2) fusion (Homo sapiens)
# Sequence (Q92519 with tags, fused parts or gaps): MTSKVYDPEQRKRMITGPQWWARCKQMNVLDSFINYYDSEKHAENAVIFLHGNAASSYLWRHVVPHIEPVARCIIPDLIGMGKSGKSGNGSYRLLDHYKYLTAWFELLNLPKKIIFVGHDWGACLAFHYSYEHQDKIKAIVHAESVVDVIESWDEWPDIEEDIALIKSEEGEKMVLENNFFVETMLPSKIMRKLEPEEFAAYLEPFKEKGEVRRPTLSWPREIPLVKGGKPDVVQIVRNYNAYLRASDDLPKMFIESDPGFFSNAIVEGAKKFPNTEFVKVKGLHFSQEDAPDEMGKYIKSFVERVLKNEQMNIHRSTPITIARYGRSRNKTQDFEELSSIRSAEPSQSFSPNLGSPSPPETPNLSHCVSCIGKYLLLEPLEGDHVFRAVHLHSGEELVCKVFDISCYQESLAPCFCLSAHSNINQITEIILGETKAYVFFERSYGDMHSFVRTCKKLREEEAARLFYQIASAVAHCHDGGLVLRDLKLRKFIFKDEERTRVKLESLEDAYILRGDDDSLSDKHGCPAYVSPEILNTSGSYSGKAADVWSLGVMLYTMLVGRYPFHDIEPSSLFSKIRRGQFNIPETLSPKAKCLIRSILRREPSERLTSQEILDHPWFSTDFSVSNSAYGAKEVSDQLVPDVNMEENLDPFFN
# protocol: cell-based
# experimental_conditions: HFF, read-out: Luciferase activity (%)
measured_attribute: activity at 10 µM (%)
The figure you give is taken to be in %; do not add the unit.

Examples with their reported activity at 10 µM follow.
molecule	activity at 10 µM / %
CCc1c2c(nc3ccc(OC(=O)N4CCC(N5CCCCC5)CC4)cc13)-c1cc3c(c(=O)n1C2)COC(=O)[C@]3(O)CC	85
Nc1nc(N)c2nc(-c3ccccc3)c(N)nc2n1	100
NC(N)=Nc1nc(CSCCC(N)=NS(N)(=O)=O)cs1	100
COC(=O)N[C@H](C(=O)N1CC2(CC2)C[C@H]1c1nc(-c2ccc3c(c2)C(F)(F)c2cc(-c4ccc5[nH]c([C@@H]6[C@H]7CC[C@H](C7)N6C(=O)[C@@H](NC(=O)OC)C(C)C)nc5c4)ccc2-3)c[nH]1)C(C)C	100
COc1cc2nc(N3CCN(C(=O)c4ccco4)CC3)nc(N)c2cc1OC	49

Request: // Input: CCOC(=O)c1cncn1[C@H](C)c1ccccc1 [Etomidate] . Output its activity at 10 µM only.
Result: 100

Request: // Input: O=C1CN2Cc3c(ccc(Cl)c3Cl)N=C2N1 [Anagrelide] . Output its activity at 10 µM only.
Result: 92

Request: // Input: COC(=O)C1=C(C#N)NC(C)=C(C(=O)OC(C)C)C1c1cccc([N+](=O)[O-])c1 (stereo not drawn) . Output its activity at 10 µM only.
Result: 89

Request: // Input: CCN(CC)C(=O)C1(c2ccccc2)CC1CN (stereo not drawn) . Output its activity at 10 µM only.
Result: 85

----------
# measured_target: Trib2-Luciferase (Luc-Trib2) fusion (Homo sapiens, UniProt Q92519)
# Sequence (Q92519 with tags, fused parts or gaps): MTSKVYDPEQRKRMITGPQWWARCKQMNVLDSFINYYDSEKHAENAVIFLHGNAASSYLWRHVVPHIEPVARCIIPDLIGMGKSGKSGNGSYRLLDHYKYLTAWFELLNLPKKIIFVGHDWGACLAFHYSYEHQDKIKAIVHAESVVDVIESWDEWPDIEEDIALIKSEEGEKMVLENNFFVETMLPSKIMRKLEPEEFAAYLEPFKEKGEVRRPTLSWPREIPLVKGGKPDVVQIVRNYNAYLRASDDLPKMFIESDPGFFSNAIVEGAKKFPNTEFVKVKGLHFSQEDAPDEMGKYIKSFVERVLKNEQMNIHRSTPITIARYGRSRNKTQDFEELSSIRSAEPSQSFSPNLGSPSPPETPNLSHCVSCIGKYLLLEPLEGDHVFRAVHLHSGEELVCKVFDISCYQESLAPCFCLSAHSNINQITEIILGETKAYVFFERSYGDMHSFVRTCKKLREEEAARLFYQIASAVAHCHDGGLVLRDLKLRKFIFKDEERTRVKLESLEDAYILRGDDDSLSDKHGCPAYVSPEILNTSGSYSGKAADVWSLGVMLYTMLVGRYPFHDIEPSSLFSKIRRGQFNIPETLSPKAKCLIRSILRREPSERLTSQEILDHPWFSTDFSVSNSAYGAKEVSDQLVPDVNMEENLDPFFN
# protocol: cell-based
# experimental_conditions: HFF, read-out: Luciferase activity (%)
measured_attribute: activity at 10 µM (%)
The figure you give is taken to be in %; do not add the unit.

compound	value_units	activity at 10 µM
CN1[C@@H]2CC[C@H]1C[C@@H](OC(=O)C(CO)c1ccccc1)C2 (stereo partly drawn)	%	67
CCCC1O[C@@H]2C[C@H]3[C@@H]4CCC5=CC(=O)C=C[C@]5(C)[C@H]4[C@@H](O)C[C@]3(C)[C@]2(C(=O)CO)O1 (stereo partly drawn) [Budesonide]	%	83

Note: attention shifts to another entry.
Request: // Input: CC[C@H]1OC(=O)[C@H](C)[C@@H](O[C@H]2C[C@@](C)(OC)[C@@H](O)[C@H](C)O2)[C@H](C)[C@@H](O[C@@H]2O[C@H](C)C[C@H](N(C)C)[C@H]2O)[C@](C)(OC)C[C@@H](C)C(=O)[C@H](C)[C@@H](O)[C@]1(C)O . Output its activity at 10 µM only.
Result: 97

----------
# measured_target: Trib2-Luciferase (Luc-Trib2) fusion (Homo sapiens)
# protocol: cell-based
# experimental_conditions: HFF, read-out: Luciferase activity (%)
just bin them by activity at 10 µM: low-valued = under 80%, mid-valued = from 80% up to 90%, high-valued = 90% and over

molecule	measured_target	group
CC1(C)S[C@@H]2[C@H](NC(=O)[C@H](C(=O)O)c3ccsc3)C(=O)N2[C@H]1C(=O)O	Trib2-Luciferase (Luc-Trib2) fusion (Homo sapiens)	mid-valued
CC(C)(C)c1nc(-c2cccc(NS(=O)(=O)c3c(F)cccc3F)c2F)c(-c2ccnc(N)n2)s1	Trib2-Luciferase (Luc-Trib2) fusion (Homo sapiens)	low-valued
N=C(N)NC(=O)Cc1c(Cl)cccc1Cl	Trib2-Luciferase (Luc-Trib2) fusion (Homo sapiens)	high-valued
COc1cccc2c1C(=O)c1c(O)c3c(c(O)c1C2=O)C[C@@](O)(C(=O)CO)C[C@@H]3O[C@H]1C[C@H](N)[C@H](O)[C@H](C)O1	Trib2-Luciferase (Luc-Trib2) fusion (Homo sapiens)	low-valued
Cc1nnc(NS(=O)(=O)c2ccc(N)cc2)s1	Trib2-Luciferase (Luc-Trib2) fusion (Homo sapiens)	high-valued
C[C@]12C=CC(=O)C=C1CC[C@H]1[C@@H]3C[C@@H](O)[C@](O)(C(=O)CO)[C@@]3(C)C[C@H](O)[C@@]12F	Trib2-Luciferase (Luc-Trib2) fusion (Homo sapiens)	low-valued
CC[C@@H](CO)NCCN[C@@H](CC)CO	Trib2-Luciferase (Luc-Trib2) fusion (Homo sapiens)	high-valued
CC(C)(Oc1ccc(Cl)cc1)C(=O)O	Trib2-Luciferase (Luc-Trib2) fusion (Homo sapiens)	mid-valued

Request: State the class of the molecule shown: CC(/C=C1\SC(=S)N(CC(=O)O)C1=O)=C\c1ccccc1
Result: low-valued

Request: State the class of the molecule shown: CC(=O)OC(C)C[N+](C)(C)C (stereo not drawn)
Result: high-valued

Request: State the class of the molecule shown: Fc1ccc([C@@H]2CCNC[C@H]2COc2ccc3c(c2)OCO3)cc1
Result: high-valued

Request: State the class of the molecule shown: CC1=C(C(=O)OCCN(Cc2ccccc2)c2ccccc2)C(c2cccc([N+](=O)[O-])c2)C(P2(=O)OCC(C)(C)CO2)=C(C)N1 (stereo not drawn)
Result: high-valued

Request: State the class of the molecule shown: Cc1ccccc1C(=O)Nc1ccc(C(=O)N2CCCC(N(C)C)c3ccccc32)cc1 (stereo not drawn)
Result: mid-valued
